Target: EPH-B4 (Homo sapiens)
Sequence (P54760 16-987): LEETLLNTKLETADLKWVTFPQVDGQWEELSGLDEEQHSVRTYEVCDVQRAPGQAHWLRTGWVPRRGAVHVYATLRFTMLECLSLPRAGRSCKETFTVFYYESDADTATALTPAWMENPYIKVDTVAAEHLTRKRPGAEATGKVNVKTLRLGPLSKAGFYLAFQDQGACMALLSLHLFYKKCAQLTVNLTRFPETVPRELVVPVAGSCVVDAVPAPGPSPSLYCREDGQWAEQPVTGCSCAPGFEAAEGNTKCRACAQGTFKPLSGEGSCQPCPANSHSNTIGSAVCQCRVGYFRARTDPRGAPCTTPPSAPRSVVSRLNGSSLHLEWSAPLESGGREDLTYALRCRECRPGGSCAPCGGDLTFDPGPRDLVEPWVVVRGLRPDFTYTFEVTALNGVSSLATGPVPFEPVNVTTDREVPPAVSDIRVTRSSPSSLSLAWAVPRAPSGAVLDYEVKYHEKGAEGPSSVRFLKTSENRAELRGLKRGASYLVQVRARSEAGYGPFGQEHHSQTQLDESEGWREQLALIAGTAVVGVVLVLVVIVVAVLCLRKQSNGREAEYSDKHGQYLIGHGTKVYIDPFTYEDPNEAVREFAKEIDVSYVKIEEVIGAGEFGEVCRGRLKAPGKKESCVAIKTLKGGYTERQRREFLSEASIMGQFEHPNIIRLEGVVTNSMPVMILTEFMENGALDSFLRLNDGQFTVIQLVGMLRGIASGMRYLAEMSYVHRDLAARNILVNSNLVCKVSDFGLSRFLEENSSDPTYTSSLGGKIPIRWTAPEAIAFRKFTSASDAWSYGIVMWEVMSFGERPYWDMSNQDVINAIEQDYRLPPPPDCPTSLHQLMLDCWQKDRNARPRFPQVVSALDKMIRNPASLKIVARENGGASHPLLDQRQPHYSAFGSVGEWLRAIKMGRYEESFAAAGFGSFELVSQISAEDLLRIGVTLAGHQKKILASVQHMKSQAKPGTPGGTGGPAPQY
Experiment: Kinase profiling (radiometric filter-binding)
Type: biochemical
Details: EPH-B4, 1 µM inhibitor; read-out: Residual activity, %
Square brackets hold non-standard residues; d marks the D form. Peptide text beside a SMILES is read from it. * marks the point of attachment. X3 = O=C(CCCCCNCc1nc2c(sc3cc(Br)cnc32)c(=O)[nH]1)*
Exercise: for every item that follows, state its recorded remaining activity at 1 µM.

[in] What measured remaining activity at 1 µM goes with N=C(N)NCCC[C@@H](NC(=O)CNC(=O)[C@@H](CCCNC(=N)N)NC(=O)[C@@H](CCCNC(=N)N)NC(=O)CCCCCCCNCc1nc2c(sc3cc(Br)cnc32)c(=O)[nH]1)C(=O)N[C@H](CCCCN)C(N)=O ?
[out] 104%

[in] # query: remaining activity at 1 µM of entry N=C(N)NCCC[C@@H](NC(=O)CNC(=O)[C@@H](CCCNC(=N)N)NC(=O)[C@@H](CCCNC(=N)N)NC(=O)CCCCCCCNCc1nc2c(sc3ccc(Br)cc32)c(=O)[nH]1)C(=O)N[C@H](CCCCN)C(N)=O
[out] 118%

[in] I would be grateful if you could share the reported remaining activity at 1 µM for N=C(N)NCCC[C@@H](NC(=O)CNC(=O)[C@@H](CCCNC(=N)N)NC(=O)[C@@H](CCCNC(=N)N)NC(=O)Cn1cc(CNCc2nc3c(sc4ccc(Br)cc43)c(=O)[nH]2)nn1)C(=O)N[C@H](CCCCN)C(N)=O .
[out] 98%

[in] Quick one: remaining activity at 1 µM of N=C(N)NCCC[C@@H](NC(=O)CCCCCNCc1nc2c(sc3cc(Br)cnc32)c(=O)[nH]1)C(=O)N[C@H](CCCNC(=N)N)C(=O)N[C@H](CCCNC(=N)N)C(=O)N[C@H](CCCNC(=N)N)C(=O)N[C@H](CCCNC(=N)N)C(=O)N[C@H](CCCNC(=N)N)C(=O)N[C@H](CCCCN)C(N)=O [ARC-3126, BPTP-Ahx-(D-Arg)6-D-Lys-NH2] (X3-[dR][dR][dR][dR][dR][dR][dK]-NH2) ?
[out] 101%

[in] Param item = N=C(N)NCCC[C@@H](NC(=O)CCCCCNC(=O)Cn1cnc2c(I)c(I)c(I)c(I)c21)C(=O)N[C@H](CCCNC(=N)N)C(=O)N[C@H](CCCNC(=N)N)C(=O)N[C@H](CCCNC(=N)N)C(=O)N[C@H](CCCNC(=N)N)C(=O)N[C@H](CCCNC(=N)N)C(=O)N[C@H](CCCCN)C(N)=O ; retrieve measured remaining activity at 1 µM.
[out] 119%

* * *

Target: MST2 (Homo sapiens)
Sequence (Q13188 1-491): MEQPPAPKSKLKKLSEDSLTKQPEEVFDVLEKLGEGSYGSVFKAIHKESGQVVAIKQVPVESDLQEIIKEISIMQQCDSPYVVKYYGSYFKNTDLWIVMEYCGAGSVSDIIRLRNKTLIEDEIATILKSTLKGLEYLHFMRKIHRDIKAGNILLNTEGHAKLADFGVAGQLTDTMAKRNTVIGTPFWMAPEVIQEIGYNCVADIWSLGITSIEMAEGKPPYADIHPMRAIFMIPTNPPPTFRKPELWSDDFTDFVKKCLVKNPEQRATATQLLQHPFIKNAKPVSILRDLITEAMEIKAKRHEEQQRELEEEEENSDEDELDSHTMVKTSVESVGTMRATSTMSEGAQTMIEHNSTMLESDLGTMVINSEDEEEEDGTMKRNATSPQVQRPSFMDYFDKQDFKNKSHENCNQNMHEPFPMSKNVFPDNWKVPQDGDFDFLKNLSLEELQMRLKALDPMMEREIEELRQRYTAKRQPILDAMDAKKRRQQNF
Test: Kinase profiling (radiometric filter-binding)
Assay type: biochemical
Settings: MST2, 1 µM inhibitor; read-out: Residual activity, %
Description: Kinase selectivity profiling was performed using the commercial service provided by the MRC PPU International Centre for Kinase Profiling (Dundee, UK) using a radiometric filter-binding assay. Kinases used for analysis were of human origin. The ATP concentration applied for inhibition measurements was at or below the ATP KM value of the particular PK. […] Residual activities were expressed as the percentage of retained activity compared to the control without inhibitor.
Square brackets hold non-standard residues; d marks the D form. Peptide text beside a SMILES is read from it. * marks the point of attachment. X3 = O=C(CCCCCNCc1nc2c(sc3cc(Br)cnc32)c(=O)[nH]1)*
Metric: remaining activity at 1 µM

[in] Request - read-out remaining activity at 1 µM | tested on MST2 (Homo sapiens) | molecule N=C(N)NCCC[C@@H](NC(=O)CCCCCNCc1nc2c(sc3cc(Br)cnc32)c(=O)[nH]1)C(=O)N[C@H](CCCNC(=N)N)C(=O)N[C@H](CCCNC(=N)N)C(=O)N[C@H](CCCNC(=N)N)C(=O)N[C@H](CCCNC(=N)N)C(=O)N[C@H](CCCNC(=N)N)C(=O)N[C@H](CCCCN)C(N)=O [ARC-3126, BPTP-Ahx-(D-Arg)6-D-Lys-NH2] (X3-[dR][dR][dR][dR][dR][dR][dK]-NH2)
[out] 106%

[in] Short answer please: remaining activity at 1 µM, MST2 (Homo sapiens), entry N=C(N)NCCC[C@@H](NC(=O)CNC(=O)[C@@H](CCCNC(=N)N)NC(=O)[C@@H](CCCNC(=N)N)NC(=O)CCCCCCCNCc1nc2c(sc3ccc(Br)cc32)c(=O)[nH]1)C(=O)N[C@H](CCCCN)C(N)=O
[out] 128%

[in] Provide value of remaining activity at 1 µM for this record tested with MST2 (Homo sapiens): N=C(N)NCCC[C@@H](NC(=O)CNC(=O)[C@@H](CCCNC(=N)N)NC(=O)[C@@H](CCCNC(=N)N)NC(=O)Cn1cc(CNCc2nc3c(sc4ccc(Br)cc43)c(=O)[nH]2)nn1)C(=O)N[C@H](CCCCN)C(N)=O
[out] 84%

[in] Write down the reported remaining activity at 1 µM of N=C(N)NCCC[C@@H](NC(=O)CCCCCNC(=O)Cn1cnc2c(I)c(I)c(I)c(I)c21)C(=O)N[C@H](CCCNC(=N)N)C(=O)N[C@H](CCCNC(=N)N)C(=O)N[C@H](CCCNC(=N)N)C(=O)N[C@H](CCCNC(=N)N)C(=O)N[C@H](CCCNC(=N)N)C(=O)N[C@H](CCCCN)C(N)=O , test system: MST2 (Homo sapiens).
[out] 73%

[in] Request body: readout remaining activity at 1 µM, system MST2 (Homo sapiens), query N=C(N)NCCC[C@@H](NC(=O)CNC(=O)[C@@H](CCCNC(=N)N)NC(=O)[C@@H](CCCNC(=N)N)NC(=O)CCCCCCCNCc1nc2c(sc3cc(Br)cnc32)c(=O)[nH]1)C(=O)N[C@H](CCCCN)C(N)=O . Return the value.
[out] 115%

These measurements were taken from paper PMC8307404.
